# Test system: IB3-1
# Assay overview: Antiproliferative activity against human IB3-1 cells after 2 days by cell counting analysis
# Type: cell-based
# Condition label: IB3-1, 48 h
Measure: pIC50
In plain terms, pIC50 is the concentration in mol/L turned into minus its base-10 logarithm.

Quick one: pIC50 for CCCc1cc(=O)oc2c1cc(C)c1occ(C)c12 ? 3.70

Item CCc1cc(=O)oc2c1cc(C)c1occ(C)c12 has what recorded pIC50? 4.30

Which pIC50 reading was recorded for the compound CCCc1cc(=O)oc2c1cc(CC)c1occ(C)c12 ? 3.79
